- TARGET_SYSTEM: PKK in kaolin activated human platelet poor plasma (Homo sapiens, UniProt P03952)
- Construct: Platelet poor plasma (PPP) obtained from human wholeblood
- Sequence (P03952 391-638 limits assumed): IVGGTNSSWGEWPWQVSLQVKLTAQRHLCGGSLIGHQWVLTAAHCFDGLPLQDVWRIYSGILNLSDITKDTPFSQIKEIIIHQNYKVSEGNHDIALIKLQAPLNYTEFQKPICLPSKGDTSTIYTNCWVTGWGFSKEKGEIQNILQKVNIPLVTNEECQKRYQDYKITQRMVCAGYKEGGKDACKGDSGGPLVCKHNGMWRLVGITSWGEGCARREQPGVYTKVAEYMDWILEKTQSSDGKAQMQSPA
- Sequence (P03952 20-390 limits assumed): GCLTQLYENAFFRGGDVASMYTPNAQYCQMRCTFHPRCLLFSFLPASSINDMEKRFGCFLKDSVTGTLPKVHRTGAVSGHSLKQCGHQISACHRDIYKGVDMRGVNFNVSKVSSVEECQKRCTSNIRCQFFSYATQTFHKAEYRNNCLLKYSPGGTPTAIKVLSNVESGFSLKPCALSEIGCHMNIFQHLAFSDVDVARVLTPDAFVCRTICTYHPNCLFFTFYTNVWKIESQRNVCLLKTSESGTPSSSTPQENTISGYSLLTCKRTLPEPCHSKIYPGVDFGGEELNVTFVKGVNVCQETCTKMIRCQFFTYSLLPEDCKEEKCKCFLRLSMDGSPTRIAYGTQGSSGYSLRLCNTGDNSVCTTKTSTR
- EXPERIMENT_NOTES: Inhibition of PKK in kaolin activated human PPP;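 note: readout is the rate of fluorogenic substrate cleavage in rfu per min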
- SETTINGS: 25-750 μg/mL kaolin, global fit, text b200 calls the values IC90
In plain terms, low IC50, meaning strictly below 300 nM, gives criterion met, and everything else gives criterion not met.

Sample answers from the record:
{"MOLECULE": "Cn1cnc2c1CC[C@H]2NC(=O)c1cnn(Cc2ccc(N3CC4CC4C3)nc2CO)c1 (stereo partly shown)", "GROUP_LABEL": "criterion not met"}
{"MOLECULE": "Cc1nc(N2CC3CC3C2)ncc1Cn1cnc(C(=O)N[C@@H]2CCc3c2ncn3C)c1 (stereo partly shown)", "GROUP_LABEL": "criterion met"}
{"MOLECULE": "Cc1nc(N2CC3C(C2)C3(F)F)ccc1Cn1cc(C(=O)N[C@@H]2CCc3c2ncn3C)c(CO)n1 (stereo partly shown)", "GROUP_LABEL": "criterion not met"}

Asked: Here's an entry: Cc1cc(N2CC3C(C2)C3(F)F)ccc1Cn1cc(C(=O)N[C@@H]2CCc3c2ncn3C)cn1 (stereo partly shown) . Is its IC50 below 300 nM?
Given back: criterion not met

Asked: For this molecule, is IC50 lower than 300 nM? Cn1cnc2c1CC[C@H]2NC(=O)c1cn(Cc2ccc(N3CC4(CC4)C3)nc2)nn1
Given back: criterion not met

Asked: # TODO verify IC50 < 300 nM strictly for this molecule: Cn1cnc2c1CC[C@H]2NC(=O)c1cnn(Cc2ccc(N3CC4(CC4)C3)nc2Br)c1
Given back: criterion not met

Asked: Is the reported IC50 for Cn1cnc2c1CC[C@H]2NC(=O)c1cn(Cc2ccc(N3CC4C(C3)C4(F)F)cn2)cn1 (stereo partly shown) strictly below 300 nM?
Given back: criterion met

Asked: is_below(IC50, 300 nM) for Cc1c(Cn2cnc(C(=O)N[C@@H]3CCc4c3ncn4C)c2)cnc(N2CC3CC3C2)c1C#N (stereo partly shown) ?
Given back: criterion met

Asked: Would you kindly verify if IC50 of Cn1cnc2c1CC[C@H]2NC(=O)c1cn(Cc2ccc(N3CC4CC4C3)nc2Br)cn1 (stereo partly shown) is strictly less than 300 nM?
Given back: criterion not met

Asked: Strictly below 300 nM in IC50? Cn1cnc2c1CC[C@H]2NC(=O)c1cnn(Cc2ccc(N3CC4CC4C3)nc2)c1 (stereo partly shown)
Given back: criterion not met

Asked: Strictly below 300 nM: is that where IC50 of Cn1cnc2c1CC[C@H]2NC(=O)c1cnn(Cc2ccc(N3CC4(CC4)C3)nc2)c1 sits?
Given back: criterion not met

Asked: Please state whether IC50 is below 300 nM for CCc1nc(N2CC3(CC3)C2)ccc1Cn1cc(C(=O)N[C@@H]2CCc3c2ncn3C)cn1
Given back: criterion met

Asked: Would you kindly verify if IC50 of Cn1cnc2c1CC[C@H]2NC(=O)c1cn(Cc2cnc(N3CC4CC4C3)nc2C(F)F)cn1 (stereo partly shown) is strictly less than 300 nM?
Given back: criterion not met

Asked: Given Cc1nc(N2CC3CC3C2)ccc1Cn1cc(C(=O)N[C@@H]2CCc3c2ncn3C)c(CCO)n1 (stereo partly shown) , is recorded IC50 strictly lower than 300 nM?
Given back: criterion not met

Asked: Please let me know if Cn1cnc2c1CC[C@H]2NC(=O)c1cnn(Cc2ccc(N3CC4C(C3)C4(F)F)cc2F)c1 (stereo partly shown) shows IC50 below 300 nM.
Given back: criterion not met

Asked: Determine if Cn1cnc2c1CC[C@H]2NC(=O)c1cnn(Cc2ccc(N3CC4C(C3)C4(F)F)nc2C2CCC2)c1 (stereo partly shown) shows IC50 strictly lower than 300 nM.
Given back: criterion not met
